Molecular target: T1, SHIP2-SH2 R28A (human, UniProt O15357 20-117, R28A)
T1 sequence (looked up): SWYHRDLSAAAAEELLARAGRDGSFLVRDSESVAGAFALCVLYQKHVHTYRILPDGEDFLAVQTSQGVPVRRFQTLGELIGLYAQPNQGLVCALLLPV
Assay: fluorescence polarisation
Non-standard residues stand in square brackets, D forms with d. No end group written: not given here. FAM = fluorescent label on the peptide N-terminus (FAM, not expanded in the evidence); pY = N[C@@H](Cc1ccc(OP(=O)(O)O)cc1)C(=O)O
Readout Kind: Kd (µM)
Give bare numbers, in µM.

Task item: // returns reported Kd for input {FAM}-NAT[pY]VNVK [FAM-labeled c-MET peptide (1353-1360) with Y1356 phosphorylated, FAM-N-A-T-pY-V-N-V-K]
Reply: 24.7
